Values were extracted from PubChem BioAssay (NCI).

- Tested on: HOP-92 NSCLC
- measurement.protocol: NCI tumour cell line growth inhibition, 48 h
observed.property: TGI (µM)

# mol, observed.property, limit.sign, test.result
records = [
    ("Nc1c(C(=O)Nc2ccccc2O)[n+]([O-])c2ccccc2[n+]1[O-]", "TGI", ">", 100),
    ("COc1ccc(C(=O)/C=C/c2ccc(OCc3ccccc3)c(OC)c2)cc1OC", "TGI", "=", 5.81),
    ("Cc1cc(C)c(S(=O)(=O)N(CCCN)OCCCN)c(C)c1", "TGI", ">", 100),
    ("O=S(=O)(NCCCNc1nccc(-c2c(-c3cccc(F)c3)nc3occn23)n1)c1cccc2ccccc12", "TGI", ">", 100),
    ("CN(C)CCNC(=O)c1cccc2cc3ccc4ccccc4c3nc12", "TGI", "=", 0.593),
]

----------
- Tested on: UO-31 renal
- measurement.protocol: NCI tumour cell line growth inhibition, 48 h
Recorded GI50 values for a group of compounds are listed next.

# compound, system, GI50
rows = [
    ("Oc1ccc(-c2[nH]c3ccccc3c2-c2nc3ccccc3o2)cc1", "UO-31 renal", "893 nM"),
    ("c1ccc2c(c1)[O][Sn][O]2", "UO-31 renal", "12.6 µg/mL"),
    ("CCc1c(C#N)c(SC(C(N)=O)c2ccccc2)nc(N2CCC(N)CC2)c1C#N (stereo not given)", "UO-31 renal", "> 100000 nM"),
    ("CCN(CC)C(=O)CCCCCn1c2ccccc2c2c3c(c4c5ccccc5[nH]c4c21)C(=O)N(O)C3=O", "UO-31 renal", "1720 nM"),
    ("Cc1nn2c(-c3nc4cc(Cl)c(Cl)cc4[nH]3)c(-c3ccc(F)cc3)nc2s1", "UO-31 renal", "1640 nM"),
    ("CCN(CCNc1ccc(C)c2sc3cc(Cl)ccc3c(=O)c12)CC(C)(C)O", "UO-31 renal", "1300 nM"),
    ("CC/C(=C(/c1ccc(/C=C/C(=O)O)cc1)c1ccc2[nH]ncc2c1)c1ccc(F)cc1Cl", "UO-31 renal", "11200 nM"),
    ("Cc1ccc(O)cc1Nc1ccnc2cc(-c3ccccn3)ccc12", "UO-31 renal", "246 nM"),
    ("COC(=O)C1=Nc2ccc(F)cc2/C1=C/c1sc(=S)[nH]c1O", "UO-31 renal", "457 nM"),
    ("CCOc1cc(/C=C/C(=O)CC(=O)/C=C/c2ccc(OC(=O)CNCCN(CC)CC)c(OCC)c2)ccc1OC(=O)CNCCN(CC)CC", "UO-31 renal", "1700 nM"),
]

----------
- Test system: MDA-MB-231 breast
- measurement.protocol: NCI tumour cell line growth inhibition, 48 h

# compound, TGI
measured = [
    ("Cc1ccc2oc3c(ccc(=O)n3C)c(=O)c2c1", "> 100 µM"),
    ("CC(=O)Oc1ccc(/C=C/C(=O)NCCOC(=O)/C=C/c2ccc(OC(C)=O)c(OC(C)=O)c2)cc1OC(C)=O", "> 100 µM"),
    ("COc1ccc(/C=N/n2c(Cc3ccccc3)n[nH]c2=O)cc1", "> 100 µM"),
    ("O=S(=O)(/N=C(\\NO)Nc1ccc(Cl)cc1)c1cc(S(=O)(=O)c2ccccc2)cs1", "56.1 µM"),
    ("NCC(Cc1ccccc1)P(=O)(O)O (stereo not given)", "> 100 µM"),
    ("CC(C)C/C(=N\\NC(=O)c1ccncc1)c1cc(Cl)ccc1O", "> 46 µM"),
    ("CC(=O)O[C@H]1C[C@@H](OC(C)=O)[C@@](C)(O)[C@@H]2[C@@H](OC(C)=O)[C@@]3(O)[C@H](/C=C(/CCl)[C@H]4O[C@H]4[C@@H](OC(C)=O)[C@@]12C)OC(=O)[C@@H]3C", "> 25 µM"),
    ("CCOc1cc2c(cc1O)CC[C@@H]1[C@@H]2CC[C@]2(C)[C@@H](O)CC[C@@H]12", "6.67 µM"),
    ("CC1=NNC(=O)[C@H]2[C@H]1CCC1[C@@H]2CC[C@]2(C)[C@@H](O)CC[C@@H]12 (stereo not given in full)", "> 100 µM"),
    ("O=C(O)Cn1ccc(=O)c2c([N+](=O)[O-])cccc21", "> 100 µM"),
    ("O=C(Nc1nc2c(s1)CCc1c-2c(Br)n(Cc2ccccc2)c1Br)c1ccccc1", "32.6 µM"),
    ("CCN(CCCl)c1cc(CN(C)C)cc(NC(=O)c2cc(C(=O)Nc3cc(CN(C)C)cc(N(CC)CCCl)c3)n(C)n2)c1", "4.06 µM"),
    ("COCCOCCOCCC(=O)NC1CC2CCC1(C)C2(C)C (stereo not given)", "> 100 µM"),
    ("Cn1cnnc1SC(F)(F)c1nc2ccccc2o1", "> 100 µM"),
    ("CO/C(=N\\N=C(/c1ccccc1)C(F)(F)F)c1ccncc1", "> 100 µM"),
    ("CC1(CCCCO)C=CC(S(=O)(=O)c2ccccc2)CC1 (stereo not given)", "16.4 µM"),
    ("COc1cc(OC)c(/C=C/C(=O)c2c(N)cc(OC)cc2OC)c(OC)c1", "> 100 µM"),
    ("CCC1=C(c2ccc(OC)cc2)CC[C@]2(CCNC2=O)[C@@H]1C", "> 100 µM"),
    ("COC(=O)C1=Nc2ccc(F)cc2/C1=C/c1sc(=S)[nH]c1O", "4.26 µM"),
    ("O=C1C2C(C(=O)N1CC[Se][Se]CCN1C(=O)C3C(C1=O)[C@H]1C=C[C@@H]3C1)[C@H]1C=C[C@@H]2C1 (stereo not given in full)", "5.48 µM"),
]

----------
- Tested on: MOLT-4 leukemia
- measurement.protocol: NCI tumour cell line growth inhibition, 48 h
Recorded TGI values for a group of molecules are listed next.
observed.property: TGI (µM)

# molecule, system, observed.property, unit.descriptor, limit.sign, test.result
measured = [
    ("COc1ccc2c(C(=O)c3c(C)n(CCN4CCOCC4)c4ccccc34)cccc2c1", "MOLT-4 leukemia", "TGI", "µM", ">", 100),
    ("Cn1cc(NC(=O)c2cc(NC(=O)CCCCCCCC(=O)Nc3cc(C(=O)Nc4cc(C(=O)NCCC(=N)N)n(C)c4)n(C)c3)cn2C)cc1C(=O)NCCC(=N)N", "MOLT-4 leukemia", "TGI", "µM", "=", 66.7),
    ("CCC1=C(c2ccc(OC)cc2)CC[C@]2(CCNC2=O)[C@@H]1C", "MOLT-4 leukemia", "TGI", "µM", "=", 39.7),
    ("CN(c1ccc(NC(=O)NCCN2CCOCC2)cc1)c1ccnc(Nc2ccc(CS(C)(=O)=O)cc2)n1", "MOLT-4 leukemia", "TGI", "µM", ">", 25),
    ("O=S(=O)(Cc1ccccc1)SCc1ccccc1", "MOLT-4 leukemia", "TGI", "µM", "=", 14.3),
    ("COc1cc2c(cc1OC)C(SC)C(=O)N(Cc1cccc(OC)c1OC)CC2 (stereo not given)", "MOLT-4 leukemia", "TGI", "µM", "=", 45.5),
    ("O=C(O)c1ccccc1CC(Cc1ccccc1)C(=O)O (stereo not given)", "MOLT-4 leukemia", "TGI", "µM", ">", 100),
    ("CC(=O)Oc1ccc(/C=C/C(=O)NCCOC(=O)/C=C/c2ccc(OC(C)=O)c(OC(C)=O)c2)cc1OC(C)=O", "MOLT-4 leukemia", "TGI", "µM", ">", 100),
    ("CCCCOc1ccc(S(=O)(=O)/N=C(\\N)Nc2ccc(Cl)cc2)cc1", "MOLT-4 leukemia", "TGI", "µM", "=", 29.9),
]

----------
- Test system: T-47D breast
- measurement.protocol: NCI tumour cell line growth inhibition, 48 h
observed.property: GI50

# mol, system, test.result
measured = [
    ("CN1CCOCCOCCOc2ccccc2NC(=O)c2nc(cnc2N)-c2ccc(cc2)S1(=O)=O", "T-47D breast", "> 100 µM"),
    ("COc1cc(OC)c(/C=C/C(=O)c2c(N)cc(OC)cc2OC)c(OC)c1", "T-47D breast", "0.478 µM"),
    ("CN(c1ccc(NC(=O)NCCN2CCOCC2)cc1)c1ccnc(Nc2ccc(CS(C)(=O)=O)cc2)n1", "T-47D breast", "> 23.6 µM"),
    ("O=S(=O)(NCCCNc1nccc(-c2c(-c3cccc(F)c3)nc3occn23)n1)c1cccc2ccccc12", "T-47D breast", "2.59 µM"),
    ("COc1ccc(C(=O)/C=C/c2ccc(OCc3ccccc3)c(OC)c2)cc1OC", "T-47D breast", "4.33 µM"),
]
